- Test system: KB
- test.method.notes: Cytotoxicity against human epidermoid carcinoma vinblastine-selected multidrug-resistant (KBV-1) cell line.
- Format: functional, cell-based
quantity.kind: pIC50
// scale note: pIC50 = -log10(conc_M); give the bare number

{"smiles.record": "c1ccc(-c2ccc3[nH]c(-c4ccc5[nH]c(-c6ccc7[nH]cnc7c6)nc5c4)nc3c2)cc1", "tested.on": "KB", "quantity.kind": "pIC50", "measured.value": 6.46}
{"smiles.record": "c1cc(-c2ccc3[nH]c(-c4ccc5[nH]c(-c6ccc7[nH]cnc7c6)nc5c4)nc3c2)ccn1", "tested.on": "KB", "quantity.kind": "pIC50", "measured.value": 8.00}
{"smiles.record": "c1ccc(-c2ccc3[nH]c(-c4ccc5[nH]c(-c6ccc7[nH]cnc7c6)nc5c4)nc3c2)nc1", "tested.on": "KB", "quantity.kind": "pIC50", "measured.value": 7.05}

# evaluate next
IN: GET /values?readout=pIC50&item= c1cncc(-c2ccc3[nH]c(-c4ccc5[nH]c(-c6ccc7[nH]cnc7c6)nc5c4)nc3c2)c1
OUT: 7.70
